The reader will find reported KMg/KCa (selectivity to magnesium ion) values listed item by item below.
assay: Binding constant to magnesium ion by fluorescence titration (Benesi-Hildebrand plot); details: ratio of binding constant to magnesium ion to binding constant to calcium ion
reported.endpoint: KMg/KCa (selectivity to magnesium ion)

molecule	reported.endpoint	test.value
O=C(O)COc1cc2cc(-c3ncc(C(=O)O)o3)oc2cc1N(CC(=O)O)CC(=O)O [mag-fura-2]	KMg/KCa (selectivity to magnesium ion)	0.013
COC(=O)c1cc2cc3c4c(c2oc1=O)C(C)(C)CCN4CCC3(C)C [KMG-27]	KMg/KCa (selectivity to magnesium ion)	3.09
O=C(O)COc1cc(-c2cc3ccc(C(=O)O)cc3[nH]2)ccc1N(CC(=O)O)CC(=O)O [mag-indo-1]	KMg/KCa (selectivity to magnesium ion)	0.013
CC(=O)OCOC(=O)c1cc2cc3c4c(c2oc1=O)CCCN4CCC3 [KMG-20]	KMg/KCa (selectivity to magnesium ion)	3.0
O=C([O-])COc1cc(NC(=O)c2ccc3c(c2)C(=O)OC32c3cc(Cl)c([O-])cc3Oc3cc([O-])c(Cl)cc32)ccc1N(CC(=O)[O-])CC(=O)[O-].[K+].[K+].[K+].[K+].[K+] [Magnesium Green]	KMg/KCa (selectivity to magnesium ion)	0.003
